molecular target: EGFR TMLRCS (Homo sapiens, UniProt P00533, C797S/L858R/T790M); assay: HTRF Phospho EGFR TMLRCS Assay (Cellular); settings: BaF3-TMLRCS cell line, 4 hours incubation, Phospho-EGFR HTRF readout
Sequence (P00533 25-1210 T790M/C797S/L858R): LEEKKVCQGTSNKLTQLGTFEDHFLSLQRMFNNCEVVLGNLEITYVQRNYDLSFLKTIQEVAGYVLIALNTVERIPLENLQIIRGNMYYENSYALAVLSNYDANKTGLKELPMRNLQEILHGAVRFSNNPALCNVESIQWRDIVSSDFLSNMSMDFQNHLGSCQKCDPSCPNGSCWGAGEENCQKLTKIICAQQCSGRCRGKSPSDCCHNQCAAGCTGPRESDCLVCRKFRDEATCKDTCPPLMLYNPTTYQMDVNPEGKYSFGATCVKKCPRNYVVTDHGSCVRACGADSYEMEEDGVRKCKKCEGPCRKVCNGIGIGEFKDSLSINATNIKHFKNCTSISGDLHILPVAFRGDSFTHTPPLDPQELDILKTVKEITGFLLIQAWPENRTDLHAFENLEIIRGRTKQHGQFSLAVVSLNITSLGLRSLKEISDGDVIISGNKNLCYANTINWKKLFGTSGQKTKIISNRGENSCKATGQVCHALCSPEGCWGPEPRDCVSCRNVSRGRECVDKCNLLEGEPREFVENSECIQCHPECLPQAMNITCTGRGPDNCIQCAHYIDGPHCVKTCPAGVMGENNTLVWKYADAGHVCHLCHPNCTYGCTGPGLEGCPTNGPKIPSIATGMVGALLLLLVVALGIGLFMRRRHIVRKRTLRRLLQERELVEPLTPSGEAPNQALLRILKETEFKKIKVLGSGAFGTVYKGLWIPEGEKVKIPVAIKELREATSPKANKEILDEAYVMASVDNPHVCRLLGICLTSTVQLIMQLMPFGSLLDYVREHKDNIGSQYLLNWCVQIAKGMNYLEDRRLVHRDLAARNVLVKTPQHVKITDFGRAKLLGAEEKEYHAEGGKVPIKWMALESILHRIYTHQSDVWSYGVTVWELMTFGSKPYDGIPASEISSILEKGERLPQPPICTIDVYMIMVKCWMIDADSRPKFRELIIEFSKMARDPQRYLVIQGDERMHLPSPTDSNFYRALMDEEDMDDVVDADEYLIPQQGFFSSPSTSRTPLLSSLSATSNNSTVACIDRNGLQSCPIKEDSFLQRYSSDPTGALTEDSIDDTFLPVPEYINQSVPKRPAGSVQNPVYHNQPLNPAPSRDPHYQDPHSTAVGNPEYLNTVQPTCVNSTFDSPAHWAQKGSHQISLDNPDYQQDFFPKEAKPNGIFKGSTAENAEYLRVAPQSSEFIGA
Response field label: string, one of true (1) (IC50 strictly below 10 nM) or false (0).

Incoming: Problem: For the molecule O=C(Nc1nccs1)C(c1ncn2c1C[C@@H](F)C2)n1cc2c(Cl)cc(-c3ccc(C4CCN(C5CC5)CC4)cc3)c(Cl)c2n1 (stereo partly shown) , is IC50 under 10 nM?
Outgoing: false (0)

Incoming: Problem: For the molecule O=C(Nc1nccs1)C(c1ncn2c1C[C@@H](F)C2)n1cc2c(Cl)cc(-c3ccc(C4CC(CN5CCC(O)CC5)C4)cc3)c(Cl)c2n1 (mixture of isomers) , is IC50 under 10 nM?
Outgoing: false (0)

Incoming: Problem: For the molecule O=C(Nc1nccs1)C(c1ncn2c1C[C@@H](F)C2)n1cc2c(Cl)cc(-c3ccc(OCCN4CCC(O)CC4)cc3)c(Cl)c2n1 (mixture of isomers) , is IC50 under 10 nM?
Outgoing: true (1)

Incoming: Problem: For the molecule CCN1CCN(c2ccc(-c3cc(Cl)c4cn(C(C(=O)Nc5nccs5)c5ncn6c5C[C@@H](F)C6)nc4c3Cl)cc2)CC1 (stereo partly shown) , is IC50 under 10 nM?
Outgoing: true (1)

Incoming: Problem: For the molecule O=C(Nc1nccs1)C(c1ncn2c1C[C@@H](F)C2)n1cc2c(Cl)cc(-c3ccc(N4CCOC(CO)C4)cc3)c(Cl)c2n1 (mixture of isomers) , is IC50 under 10 nM?
Outgoing: true (1)

Incoming: Problem: For the molecule CCN1CC[C@@H](c2ccc(-c3cc(C)c4cn(C(C(=O)Nc5nccs5)c5ncn6c5C[C@@H](F)C6)nc4c3C)cc2)[C@H](F)C1 (single isomer, unassigned) , is IC50 under 10 nM?
Outgoing: false (0)
